Target: CDK6 (Homo sapiens, UniProt Q00534)
Construct: Percentage values are normalized to DMSO-treated MM.1S cells and the respective loading controls; endogenous in cells; host or cells: MM.1S (human multiple myeloma)
Sequence (Q00534 whole entry): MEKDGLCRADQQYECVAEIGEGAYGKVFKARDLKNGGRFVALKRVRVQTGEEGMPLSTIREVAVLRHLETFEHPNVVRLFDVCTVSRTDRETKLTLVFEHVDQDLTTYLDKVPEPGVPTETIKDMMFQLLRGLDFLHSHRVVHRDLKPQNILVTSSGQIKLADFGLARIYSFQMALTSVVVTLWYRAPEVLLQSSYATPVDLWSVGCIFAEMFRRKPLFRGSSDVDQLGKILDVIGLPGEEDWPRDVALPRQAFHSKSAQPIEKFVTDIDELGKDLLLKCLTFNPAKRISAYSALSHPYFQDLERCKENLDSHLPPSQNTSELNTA
Assay: CDK6 degradation, western blot of MM.1S cells
Assay type: cell-based
Details: 0.1 μM, 16 h, MM.1S cells
measurement label: Selectivity ratio D CDK4/D CDK6 for the degradation of CDK6 over CDK4
Give the figure by itself; no unit, no explanation.

Q: For "CC(=O)c1c(C)c2cnc(Nc3ccc(N4CCN(CCOCCOCC(=O)N[C@H](C(=O)N5C[C@H](O)C[C@H]5C(=O)NCc5ccc(-c6scnc6C)cc5)C(C)(C)C)CC4)cn3)nc2n(C2CCCC2)c1=O" , what is its reported Selectivity ratio D CDK4/D CDK6 for the degradation of CDK6 over CDK4?
A: 7.4

Q: For "CC(=O)c1c(C)c2cnc(Nc3ccc(N4CCN(CCOCCOCCOCCOc5cc(-c6scnc6C)ccc5CNC(=O)[C@@H]5C[C@@H](O)CN5C(=O)[C@H](C(C)C)N5Cc6ccccc6C5=O)CC4)cn3)nc2n(C2CCCC2)c1=O" , what is its reported Selectivity ratio D CDK4/D CDK6 for the degradation of CDK6 over CDK4?
A: 1.4
